Ref: patent US20130102009A1

# Target Or System: Ac-Arg-His-Lys-Lys^Ac-Phe-NH2
# Assay Procedure: ITC binding of STACs to Ac-Arg-His-Lys-Lys^Ac-X, X=PheNH2
# Test Context: 10% DMSO for SRT1720, SRT2183 and 10, no cosolvent for SRT1460
Catalogue of Kd values

Worked cases, Kd given:
Compound | Kd
CCCCc1nc(NC2CCNCC2)cc(C(=O)Nc2ccccc2-c2nc3cc(COC4CCNCC4)cnc3s2)n1 [Compound 10] | 190 µM
COc1cc(C(=O)Nc2ccccc2-c2cn3c(CN4CCNCC4)csc3n2)cc(OC)c1OC [SRT1460] | > 500 µM
O=C(Nc1ccccc1-c1cn2c(CN3CC[C@@H](O)C3)csc2n1)c1ccc2ccccc2c1 [SRT2183] | > 50 µM

The recorded Kd for entry O=C(Nc1ccccc1-c1cn2c(CN3CCNCC3)csc2n1)c1cnc2ccccc2n1 [SRT1720] equals > 500 µM
